So I've got a bunch of compounds here, and I need their inhibition values.
Test system: Tyrosine-protein kinase ABL1 (Homo sapiens), P00519 [Y253F]
APPLIED CONDITIONS: at 0.1 µM
Report the value in % with no unit label.

Q: Using the record for N#Cc1c(NC(=O)c2cccc3ccccc23)sc2c1CCCC2 , state its measured inhibition.
A: 5.89

Q: Using the record for CCCN1CCC(Oc2cc(Nc3nc(Nc4cccc(F)c4C(N)=O)c4cc[nH]c4n3)c(OC)cc2Cl)CC1 , state its measured inhibition.
A: 1.12

Q: Using the record for O=C1NC(=O)C(c2ccc(Cl)cc2)=C1Nc1ccc(Cl)c(C(=O)O)c1 , state its measured inhibition.
A: 2.01

Q: Using the record for CCc1cccc(NC(=O)Nc2ccc(Oc3ccc4nc(NC(=O)OC)[nH]c4c3)cc2)c1 , state its measured inhibition.
A: 18.3
